Hello, the source for this data is PubChem BioAssay (NCATS), in case you need it.

target: Luciferin 4-monooxygenase (Photinus pyralis)
protocol: Biochemical firefly luciferase enzyme assay for NPC (AID 624030); note: nearly all actives have a fitted effect of over 70% in size; note: potency is the fitted concentration of half-maximal effect
assayConditions: purified P. pyralis luciferase, luminescence, 5 min; series mostly up to 58.6 µM
Inconclusive results are not listed. Active and inactive are the calls of the source. Calls come from the whole dose curve; as a rule, active = well fitted inhibition curve with a large enough effect; inconclusive = small, poorly fitted or top-dose-only effect; inactive = flat fitted curve, though single readings scatter. Where a SMILES comes first, the peptide text is derived from it. [ ]: non-standard residue; d: D form. pGlu = O=C1CC[C@@H](C(=O)O)N1; Thz = O=C(O)[C@@H]1CSCN1
outcomeMeasure: Potency

• [O-][n+]1ccccc1SSc1cccc[n+]1[O-] = 2560 nM (active)
• CC(=O)c1ccc(OCC(=O)N2CCCCC2)cc1 = inactive
• COc1cc(/C=C/C(=O)N2CCN(CC(=O)N3CCCC3)CC2)cc(OC)c1OC = inactive
• Cc1[nH]cnc1CN1CCc2c(c3ccccc3n2C)C1=O = inactive
• O=C1CN(/N=C/c2ccc([N+](=O)[O-])o2)C(=O)N1 = inactive

Query compound follows.
Challenge: Tell me the measured Potency of O=C1CC[C@@H](C(=O)N2CSC[C@H]2C(=O)O)N1 ([pGlu]-[Thz]-OH) , please.
Response given: inactive
